Please go through the items and note down their TGI.
Tested on: NCI-H522 lung
ASSAY_SUMMARY: NCI tumour cell line growth inhibition, 48 h

Problem: I'm curious: which TGI was measured for CCCN1C(=O)CNC(=O)c2[nH]cnc21 tested on NCI-H522 lung?
Solution: > 100 µM

Problem: Try this compound too: CCCc1c(C(=O)OCC)[nH]c(C(=O)CCC(=O)c2[nH]c(C(=O)OCC)c(CCC)c2C(=O)OCC)c1C(=O)OCC
Solution: > 100 µM

Problem: Try this compound too: O=c1ccnc(SCc2ccc(Cl)cc2)[nH]1
Solution: > 100 µM

---

Tested on: BT-549 breast
ASSAY_SUMMARY: NCI tumour cell line growth inhibition, 48 h
Please go through the items and note down their TGI.

Problem: If you can, please state the reported TGI value of O=C(CC(=O)N1N=C(N(c2ccccc2)c2ccccc2)CC1c1ccccc1)Nc1ccccc1 (centres undefined) .
Solution: > 100 µM

Problem: Try this compound too: Cn1c(=O)n2n(c1=O)[C@@H](c1ccccc1)[C@H]2c1ccccc1
Solution: > 100 µM

Problem: Try this compound too: CC(C)(C)c1cc(-c2nc3c(F)c(F)c(F)c(F)c3[nH]2)cc(C(C)(C)C)c1O
Solution: > 100 µM

Problem: Try this compound too: CC12C(=O)OC(=O)C1(C)C1C=CC2O1 (centres undefined)
Solution: > 100 µM

---

Please go through the items and note down their TGI.
System: HOP-62 NSCLC
ASSAY_SUMMARY: NCI tumour cell line growth inhibition, 48 h

Problem: If you can, please state the reported TGI value of COc1ccc(C2S/C(=C\c3ccccc3)C(=O)N2NC(=O)Cc2ccccc2)cc1 (stereo not given) .
Solution: > 100 µM

Problem: Try this molecule too: COC1CC(OC)C(O)C(CO)O1 (stereo not given)
Solution: > 100 µM

Problem: Try this molecule too: CC1=CC(=O)/C(=C/n2c(=S)[nH]c3ccc([N+](=O)[O-])cc32)C(=O)O1
Solution: > 100 µM

Problem: Try this molecule too: COc1cc(C)c(NC(=O)CN(C)C)cc1Nc1nc(Nc2cccc(F)c2C(N)=O)c2cc[nH]c2n1
Solution: 5.54 µM

Problem: Try this molecule too: O=S(=O)(Nc1ccccn1)c1ccc(N=Nc2ccc(O)c3ncccc23)cc1
Solution: 8.88 µM

Problem: Try this molecule too: Fc1c(F)c(C(F)(F)F)c(F)c(F)c1N/N=C/c1cn(Cc2ccccc2)c2ccccc12
Solution: 22.4 µM

Problem: Try this molecule too: Nc1nc(-c2cccs2)cs1
Solution: > 100 µM

Problem: Try this molecule too: O=C(C=Nc1ccccc1C(=O)[O-])c1cccs1.O=C(C=Nc1ccccc1C(=O)[O-])c1cccs1.[Zn+2]
Solution: > 100 µM

Problem: Try this molecule too: N#C[S-].[Ce+3].c1cnc2c(c1)ccc1cccnc12.c1cnc2c(c1)ccc1cccnc12.c1cnc2c(c1)ccc1cccnc12
Solution: 35.7 µM

Problem: Try this molecule too: O=[N+]([O-])c1ccc(C(=Nc2ccccc2)SSC(=Nc2ccccc2)c2ccc([N+](=O)[O-])o2)o1
Solution: 6.23 µM

Problem: Try this molecule too: CCO/C=C(\C(=O)OC)S(=O)(=O)c1ccc(C)cc1
Solution: > 100 µM

Problem: Try this molecule too: COc1ccc2c(c1)OC(c1ccccc1O)CC2=O (stereo not given)
Solution: > 100 µM

Problem: Try this molecule too: CCOC(=O)Nn1c(C)cc(C(=O)OC)c1C
Solution: > 100 µM

Problem: Try this molecule too: COC(=O)[C@@H]1OC(C)(c2ccccc2)O[C@H]1C(=O)OC
Solution: > 100 µM

Problem: Try this molecule too: COc1ccc(C(c2cc3c(cc2O)OCO3)N2CCOCC2)cc1OC (stereo not given)
Solution: 29.1 µM

Problem: Try this molecule too: Nc1ccccc1C#Cc1ccccc1C#Cc1cnccn1
Solution: 54.9 µM

Problem: Try this molecule too: Cc1ccc(NC(=O)c2cc3ccccc3cc2O)c(C)c1.Cc1ccc(NC(=O)c2cc3ccccc3cc2[O-])c(C)c1.[Ni+2]
Solution: 17 µM

Problem: Try this molecule too: CC/C(SC)=[N+](\C)[O-]
Solution: > 100 µM

Problem: Try this molecule too: C=C[C@H]1C=Cc2c(OC)cccc2[C@@H]1COP1(=S)NC(C)C(c2ccccc2)O1 (stereo not given in full)
Solution: > 100 µM

Problem: Try this molecule too: O=S(=O)(O)C(Cc1nc2ccccc2[nH]1)S(=O)(=O)OCCC1S(=O)(=O)OCCOS1(=O)=O (stereo not given)
Solution: > 100 µM

Problem: Try this molecule too: COC(=O)C1(C(=O)OC)CC2=C(S(=O)(=O)c3ccccc3)C[C@H](C#N)[C@H]2C1
Solution: > 100 µM

Problem: Try this molecule too: Nc1ncnc2c1ncn2C1OC(COC2C(CO)OC(OC(C(=O)O)C(O)C(OP(=O)(O)O)C(O)C(=O)O)C(O)C2O)C(O)C1O (stereo not given)
Solution: > 100 µM

Problem: Try this molecule too: CCN(CC)CC[n+]1cc2cc(OC)c(OC)cc2c2ccc3cc4c(cc3c21)OCO4
Solution: 1.93 µM

Problem: Try this molecule too: Nc1ccc(-c2ccc(-c3nc4cc(Cl)c(Cl)cc4[nH]3)cc2)cc1
Solution: > 50.5 µM

Problem: Try this molecule too: CNC(=O)Nc1ccccc1
Solution: > 100 µM

Problem: Try this molecule too: CCN1CCN(c2ccc(Nc3ncc4ccc5ncn(C(C)C)c5c4n3)nc2)CC1
Solution: 3.22 µM

Problem: Try this molecule too: COC(=O)C1=C(C)N(NC(N)=O)C(C)(O)C12CCOC2=O (stereo not given)
Solution: > 100 µM

Problem: Try this molecule too: N#CSc1ccc(S(N)(=O)=O)cc1
Solution: > 100 µM

Problem: Try this molecule too: c1cc(C[S+]2CCCC2)sc1C[S+]1CCCC1
Solution: > 100 µM

Problem: Try this molecule too: O=C1NC2C(CCO)CC=C[C@H]2c2cc3c(cc21)OCO3 (stereo not given in full)
Solution: > 100 µM

Problem: Try this molecule too: Clc1ccc(-c2nnc(-c3c(Cl)c(Cl)c(Cl)c(Cl)c3-c3nc4ccccc4[nH]3)o2)cc1
Solution: > 100 µM

Problem: Try this molecule too: C/C(=N/NC(N)=S)C(CN(C)C)C(C1=C(O)c2ccccc2OC1)c1ccccc1 (stereo not given)
Solution: > 100 µM

Problem: Try this molecule too: COc1cc2c(cc1OC)C(=O)/C(=C/c1ccc([N+](=O)[O-])cc1)CC2
Solution: > 10 µM

Problem: Try this molecule too: COc1ccc2c(c1)C(=O)c1c-2c(NCCN(C)C)nc2ccccc12
Solution: 27.4 µM

Problem: Try this molecule too: COC(=O)Cc1cc(=O)n2c([nH]c3ccccc32)c1C#N
Solution: > 100 µM

---

Please go through the items and note down their TGI.
Test system: SNB-75 CNS
ASSAY_SUMMARY: NCI tumour cell line growth inhibition, 48 h

Problem: If you can, please state the reported TGI value of O=C(c1ccccc1)C1C[C@H]2CO[C@H](c3ccccc3)N2C1=O (some centres undefined) .
Solution: > 100 µM

Problem: Try this molecule too: C[N+](C)(CCO)CCN1c2ccccc2Sc2ccccc21
Solution: > 10 µM

Problem: Try this molecule too: O=C(O)C1=NN(c2ccc(S(=O)(=O)O)cc2)C2(C1)SCC(=O)N2c1nc2ccccc2s1 (centres undefined)
Solution: > 100 µM

Problem: Try this molecule too: CCO/C=C(\C(=O)OC)S(=O)(=O)c1ccc(C)cc1
Solution: > 100 µM

---

Tested on: SW-620 colon
ASSAY_SUMMARY: NCI tumour cell line growth inhibition, 48 h
Please go through the items and note down their TGI.

Problem: If you can, please state the reported TGI value of CC1=CC(=O)c2ccc(C)cc2C1=O .
Solution: 30.4 µM

Problem: Try this compound too: COC(=O)N/N=C(/Cc1occc(=O)c1O)C(=O)Nc1ccc([N+](=O)[O-])cc1[N+](=O)[O-]
Solution: > 100 µM

Problem: Try this compound too: N#CSc1ccc(S(N)(=O)=O)cc1
Solution: 98.9 µM

Problem: Try this compound too: C#CCCOC(=O)c1ccccc1OC(C)=O
Solution: > 100 µM

Problem: Try this compound too: Cn1c(=O)c2c(nc(NCCNc3nc4c(c(=O)n(C)c(=O)n4C)n3C)n2C)n(C)c1=O
Solution: > 100 µM

Problem: Try this compound too: COc1ccc2nc(-c3cc4c([nH]c5ccccc54)c(-c4ccc(F)c(F)c4)n3)[nH]c2c1
Solution: 23.7 µM

Problem: Try this compound too: Nc1nc(-c2cccs2)cs1
Solution: > 100 µM

Problem: Try this compound too: O=C(c1cccs1)N(Cc1cccnc1)C(=S)N(Cc1cccnc1)C(=O)c1cccs1
Solution: > 100 µM

Problem: Try this compound too: O=C(O)[C@@H](NS(=O)(=O)c1ccc([N+](=O)[O-])cc1)c1ccccc1
Solution: > 100 µM

Problem: Try this compound too: C[N+](C)(CCO)CCN1c2ccccc2Sc2ccccc21
Solution: > 10 µM

Problem: Try this compound too: COC(=O)Cc1cc(=O)n2c([nH]c3ccccc32)c1C#N
Solution: > 100 µM

Problem: Try this compound too: CC(C)C1COC(c2ccc3ccccc3c2-c2c(O[Si](C)(C)C(C)(C)C)ccc3ccccc23)=N1 (stereo not given)
Solution: 35.1 µM

Problem: Try this compound too: O=C(COc1ccc(Cl)cc1Cl)N/N=C/C=C/c1ccc([N+](=O)[O-])o1
Solution: > 100 µM

Problem: Try this compound too: CCN(CC)C(=S)SS(=O)(=O)c1ccc(NC(C)=O)cc1
Solution: 32 µM

Problem: Try this compound too: N#CCc1nc(-c2cc3c(ccc4ccccc43)oc2=O)cs1
Solution: > 100 µM

Problem: Try this compound too: CC(=O)[O][Bi]([c]1ccccc1)[c]1ccccc1
Solution: 5.45 µM

Problem: Try this compound too: Nc1ccccc1C#Cc1ccccc1C#Cc1cnccn1
Solution: 31.7 µM

Problem: Try this compound too: COc1cc2c(cc1OC)C(=O)/C(=C/c1ccc([N+](=O)[O-])cc1)CC2
Solution: > 10 µM

Problem: Try this compound too: CCCN1C(=O)CNC(=O)c2[nH]cnc21
Solution: > 100 µM

Problem: Try this compound too: O=S(=O)(Nc1ccccn1)c1ccc(N=Nc2ccc(O)c3ncccc23)cc1
Solution: 25.5 µM

Problem: Try this compound too: Fc1ccc2c3c([nH]c2c1)CCNC3
Solution: > 100 µM

Problem: Try this compound too: COc1ccc(C2C(C=O)C(N3CCN(C)CC3)=Nc3nc4ccccc4n32)cc1 (stereo not given)
Solution: 65.9 µM

Problem: Try this compound too: Nc1c2ccccc2nc2ccccc12 (tested in a mixture with another compound)
Solution: 10.1 µM

Problem: Try this compound too: CSC1(CC(=O)N2CCCCC2)C(=O)Nc2ccccc21 (stereo not given)
Solution: > 100 µM

Problem: Try this compound too: O=C(/C=C/c1ccc2c(c1)OCO2)CC(=O)/C=C/c1ccc2c(c1)OCO2
Solution: > 100 µM

Problem: Try this compound too: Cc1ccccc1NC(=O)c1ccc([N+](=O)[O-])cc1
Solution: > 100 µM

Problem: Try this compound too: COC(=O)c1ccccc1C1CN=NC12Cc1cc(C)cc(C)c1C2=O (stereo not given)
Solution: > 100 µM

Problem: Try this compound too: Nc1ncnc2c1ncn2C1CC(OC2CCCCO2)C(CO)O1 (stereo not given)
Solution: > 100 µM

Problem: Try this compound too: COc1ccc(C2CC(=O)c3c(O)c(OC)c(OC)c(OC)c3O2)cc1O (stereo not given)
Solution: > 100 µM

Problem: Try this compound too: COc1ccc2c(c1)CC[C@@H]1[C@@H]2CC[C@]2(C)C(=O)/C(=C/c3ccc(O)c(OC)c3)C[C@@H]12
Solution: > 100 µM

Problem: Try this compound too: COC1=C(OC)[C@]2(OC)c3c(O)c(OC)c4c(c3O[C@@]23O[C@@H](c2ccccc2)CC=C3C1=O)[C@@H](O)C[C@H](c1ccccc1)O4
Solution: 0.334 µM

Problem: Try this compound too: CCOC(=O)c1cc(OC(=O)CC)c2c(OC)ccc(OC)c2c1
Solution: > 100 µM

Problem: Try this compound too: CCOCCOC[C@H]1CCCN(c2ccnc3sc(C(N)=O)c(N)c23)C1
Solution: > 100 µM

Problem: Try this compound too: Nc1nc(=O)n(CC(O)CO)s1 (stereo not given)
Solution: > 100 µM

Problem: Try this compound too: COc1ccc(C(c2ccc3c(c2)OCO3)N2C(=O)CCC2C(=O)O)cc1 (stereo not given)
Solution: > 100 µM
